assay: yeast display, Sf9 membrane polyspecificity reagent, FACS + sequencing; frameworks hold sequencing errors
Observed property: polyreactivity (PSR sort gate)

QVQLEESGGGLVQAGGSLRLSCAASGSTFVYYARGWYRQAPGKERELVAAITTRGGSTYYADSVKGRFTISRDNAKNTVYLQMNSLKPEDTAVYYCATKWPVYPTGYDYWGQVTQVTVSS; low polyreactivity
QVQLVESGGGLVQAGGSLRLSCAASGRTLYRYAMGWYRQAPGKERELVATITTGGSTNYADSVKGRFTISRDNAKNTVYLQMNSLKPEDTAVYYCNAGILSRWVRKYYYWGQGTQVTVSS; low polyreactivity
QVQLEESGGGLVQAGGSLRLSCAASGYTFGTYTMGWYRQAPGKERELVAGIDSGGTTNYADSVKGRFTISRDNAKNTVYLQMNSLKPEDTAVYYCTAYHLLIFDYYLGLYYYRGNYYWGQGTQVTVSS; low polyreactivity
QVQLVDSGGGLVQAGGSLRLSCAASGRIFGYNAMGWSRQAPGKERELVAAISSGGGTNYADSVKGRFTISRDNAKNTVYLQMNSLKPEDTAVYYCAVRRRRYHTYYRGYDYWGQGTQVTVSS; low polyreactivity
QVQLVESGGGLVQAGGSLRLSCAASGRIFEDYAMGWYRQAPGKERELVARISSGDSTNYADSVKGRFTISRDNAKNTVYLQMNSLKPEDTAVYYCNADRGDLYELRGSGYLDGYWGQGTQVTVSS; low polyreactivity
QVQLVESGGGLVQAGGSLRLSCAASGRTFGTYAMGWYRQAPGKDRELVAAISRRGGTTYYADSVKGRFTISRDNAKNTVYLQMNSLKPEDTAVYYCARASWSITTVLSTMDYWGQGTQVTVSS; high polyreactivity
QVQLVESGGGLVQAGGSLRLSCAASGFTFKYYAMGWYRQAPGKERELVATITRSGGNTYYADSVKGRFTISRDNAKNTVYLQMNSLKPEDTAVYYCNTRRPGKYDYWGQGTQVTVSS; high polyreactivity
QVQLVESGGGLVQGGGSLRLSCAASGSNLYKNPMGWYRPAPGKERELVASITYSGGRTNYADSVKGRFTISRDTAKNTVYLQMNSLKPEDTSVYYCPAAYVYYNPAYRYAPTAVDYDYWGQGTQVTVSS; low polyreactivity
QVQLVESGGGLVQAGGSLRLSCAASGFIFDPYAMGWYRQAPGKERELVASINTRGDRTSYADSVKGRFTISRDNAKNTVYLQMNSLKPEDTAVYYCNADAVDQVGPDDDYWGQGTQVTVSS; low polyreactivity
QVQLVESGGGLVQAGGSLRLSCAASGRTFPIYAMGWYRQSPGKERELVAAITYSGGSTYYADSVKGRFTISRDNANNKVYLKMNSLKPEDTSVYYCAVDGTKPYWHQRYDYWGQGTQVTVSS; low polyreactivity
QVQLVESGGGFVQAGGSLRLSCAASGSIFRFYAMGWYRQAPGKERELVASITSGGSTNYADSVKGRFTISRDNAKNTVYLQMNSLKPEDTAVYYCAVRLKGYRRRDYWGQGTQVTVSS; high polyreactivity

---

assay: yeast display, Sf9 membrane polyspecificity reagent, FACS + sequencing; frameworks hold sequencing errors
Observed property: polyreactivity (PSR sort gate)

QVQLVESGRGLVQAGGSLRLSCAASGFIFAYYAMGWYRQAPGKERELVAAITRSGGGTKYADSVKGRFTISRDNAKNTVYLHMNSLKPEDTAVYYCAARWYRQLRDLDYWGQGTQVTVSS; high polyreactivity
QVQLVESGGGLVQAGGSLRLSCAASGSTSDENAMGWYRQAPGKERELVASITVSGGSTSYADSVKGRFTISRDNAKNTVYLQMNSLKPEDTAVYYCNTDFGQAHTLSWYEDMDYWGQGTQVTVSS; low polyreactivity
QVQLVESGGGLVQAGGSLRLSCAASGSIFRPYAMGWYRQAPGTERELVAAITWSGGRTYYADSVKGRFTISRDTAKNTVYLQMNSLKPDDTAVYYCAADDSEGFDYWGQGTQVTVSS; high polyreactivity
QVQLVESGGGLVQAGGSLRLSCAASGSIFAVYAMGWYRQAPGKERELVASISRRGGSTYYADSVKGRFTISRDNAKNTVYLQMNSLKPEDTAVYYCAATGRRGYGYGYWGQGTQVTVSS; high polyreactivity
QDQLVESRVGLVQAGGSLRLSCAASGMIIGIYDMGWYRQAPGKERELVAAIRRSGGSTYYADSVKGRFTISRDNAKNTVYLQMYSLKPEDTAAYYCATDAWYYSQTNHDYWGQGTHVTVSS; low polyreactivity
QVQLVESWGGLVQAGGSLRLSCAASGFNPNAMGWYRQAPGKERELVAAISSNGGSTYYADSVKGRFTISRDNAKKTVYLQMNSLKPEDTAVYYCNRDQWRHTPAEGYYWGQGTQVTVSS; low polyreactivity
QDQLVESGGGLVQAGGSLRLSCAASGSTFYTYAMGWYRQEPGKERELVAAISYRGGSSYYAVSVKGRFTISRDNAKYTVYLQMNSLKPEDTAVYYCAAKVSRAGDFWGQGTQVTVSS; low polyreactivity
QVQLVESGGGLVQAGGSLRLSCAASGSIFSINAMGWYRQAPGKERELVAAINGSGGNTYYADSVKGRFTISRDNAKNTVYLQMNSLKPEDTAVYYCAAEGYSYWSFDELDYWGQGTQVTVSS; low polyreactivity
QVQLVESGGGLVQAGGSLRLSCAASGSTFITNTMGWYRQAPGKERELVAAISKSGGSTYYADSVKGRFTISRDNAKNTVYLKMNSLKAEDTAVYYCAADIYVRDRGVKYDYWRQGTQVTVSS; low polyreactivity
QVQLVESGGGLVQAGGSLRLSWAASGFTFRRNAMGWYRQAPGKEREFVAAITRSGGSTYYADSVKGRFTISRDNAKNTVYVHMNSLKPEDTAVYYCAKERPTDRYPSDEYWGQGTQVTVSS; high polyreactivity
QVQLVESGGGLVQAGGSLRLSCAASGRTFNSTAMGWYRQAPGKERELVAAITRSGGSTYYADSVKGRFTISRDYAKNTVYLQMISQKPEDTAVNYCITTRWTQRTSFDYWGQGTQVTVSS; low polyreactivity

---

assay: yeast display, Sf9 membrane polyspecificity reagent, FACS + sequencing; frameworks hold sequencing errors
Observed property: polyreactivity (PSR sort gate)

QVQLVESGGGLVQAGGSLRLSCAASGIICYENTMGWYRQAPGKERELVAAINSGGSTYYADSVKGRFTISRDNAKNTVYLQMNSLKPEDTAVYYCAADDYSGLYYSSTYRYEYWGQGTQVTVSS; low polyreactivity
QVQLQESGGGLVQAGGSLRLSCAASGIIFDNPNMGWYRQAPGKERELVATINSGATTNYADSVKGRFTISRDNAKNTVYLQMNSLIPEDTAVYYCAVDLSPTYFYYWGQGTQVTVSS; high polyreactivity
QVQLVESGGGLVQAGGSLRLSCAASGFIFRYYAMGWYRQAPGKERVLVARITPRGGRTYYADSVKGRFTISRDNAKNTVYLQMNSLKPEDTAVYYCAAVYPVLHEFGYWGQGTQVTVSS; high polyreactivity
QVQLVESGGGLVQAGGSLRLSCAASGSIIRAYAMGWYRQAPGKERELVAAITIGDSTYYADSVKGRFTISRDNAKNTVYLQMNSLKPEDTAVYYCAAKSQHLYTRRFNYWGQGTQVTVSS; low polyreactivity
QVQLVESGGGLVQAGGSLRLSCAASGSTFPGNAMGWYRQAPGKERELVASIRRSGGSTYYADSVKGRFTISRDNAKNTVYLQMNSLKPEDTAVYYCAKRTFLVSGPRSYGCYGVYYWGQGTQVTVSS; high polyreactivity

---

experiment: yeast display, Sf9 membrane polyspecificity reagent, FACS + sequencing; frameworks hold sequencing errors
Observed property: polyreactivity (PSR sort gate)

QVQLVESGGCLVQAGGSLRLSCASSGNIFTIYTMGWYRQAPGKERELVASIYRGGTTYYADSVKGRFTISRDNAKNTVYLQMNSLKPEDTAVYYCAVYSPRLRRVHTRGYWGQGTQVTVSS; high polyreactivity
QVQLVESGGGLVQAGGSLRLSCAASGLTLSYTMGWYRQAPGKERELVASITWSGTRTYYADSVKGRFTISRDNAKNTVYLQMNSLKPEDTAVYYCARRSSYGSWGYNYWGQGTQVTVSS; high polyreactivity
QVQLVESGGGLDQAGGSLRLSCAASGSTFKWNAMGWYRQAPGKERELVAAISKGSVNTYYADSVKGRFTISRDNAKNTVYLQMNSLKPEDTAVYYCAADRRYPALDYWGQGTQVTVSS; high polyreactivity
QVQLVESGGVLVQAGCSLRLSCAASGRTIPWYTMGWYRQAPRKERELVAAISNGGSTYYADSVKGRFTISRDNAKNTVYLQMNSLIPEDTAVYYCNSLVYKYIYNYDYWGQGTQVTVSS; high polyreactivity

---

assay: yeast display, Sf9 membrane polyspecificity reagent, FACS + sequencing; frameworks hold sequencing errors
Observed property: polyreactivity (PSR sort gate)

QVQLVESGGGLVQAGGSLRLSCAASGSIFAKYAMGWYRQAPGKERELVAAITSGGSTNYADSVKGRFTISRDNAKNTVYLQMTSLKPEDTAVYYCAARNHYRGYYWGQGTHVTVSS; low polyreactivity
QVQLVESGGGLVQAGGSLRLSCAASGSIFAWYGMGRYRQAPGIERELVAAITTAGSTNYADSVKGRFTISRDNAKNTVYLHMNSLKPEDTAVYYCATATPYVSLKDAHDYGGQGTQVTVSS; low polyreactivity
QDQLVESGGGLDQAGGSLRLSCAASGFTFIRYAMGWYRQAPGKERELVATITRSGGSTYYADSVKGRFTISRDHAKNTVYLQMNSLKPEDTAVYYCAKRGTLGSYYYWGQGTQVTVSS; high polyreactivity
QVQLVESGGGLVQAGGSLRLSCAASGRTFFIYAMGWYRQAPGKERELVAAIRWRGGSTYYADSVKGRFTISRDNAKNTVYLLMNSLKPEDTAVYYCAASTRQARYEDYYWGQGTQVTVSS; high polyreactivity
QVQLVESGGGLVQAGGSLRLSCAATGLIIPFSAMGWDREPPGKDRDLVAAISWSAGSTYYADSVKGRFTISRDNAKNSVYLHMNSLKPEDTAVYYCATDRNPADFYWGQGTQVTVSS; low polyreactivity
QVQLVESGGGLVQAGGSLRLSCAASGRTFYGYAMGWYRQAPGKERELVAAISSDTGGTDDTYYADSVKGRFTISRDNAKNTVYLQMNSLKPEDTAVYYCAAETEQGIIVTGLAYDYWGQGTQVTVSS; low polyreactivity
QVQLVESGGGLVQAGGSLRISCAASGITFTGYAMGWYRQAPGKEKELVAAIRGGGNTYYADSVKGRFTISRDNAKNTVYLQMNSLKPEDTAVYYCATSYASYTYWYDYWGQGTQVTVSS; low polyreactivity
QHQLVESGGGLVQAGGSLRLSCAASGRTFHRNAKGWYRQAPWQERELVAAITGSGGSTYYADSVKGRFTISRDNAKNTVYLQMYSLKPEDTAVYYCATYSYPERTGGQRTHYYWGQGTQVTVSS; high polyreactivity
QVQLEESGAGLVQAGGSLRLTCAASGSTFYSNVMGWYRQAPGKEREFVAGISGSGGSTYYADSVKGRFTISRDNGNISVYLLINSLKPEDPAVYYCKAVRYPRLLYYWGQGTQVNVSS; high polyreactivity
QVQLVESGGGLVQAGGSLRLSCAASGRIFQYDVMGWYRQAPGKERELVARITYNGGGTYYADSVKGRFTISRDTAKNTVYLQMNSLKPEDTAVYYCNARYPWRDWEDDYWGQGTQVTVSS; low polyreactivity
QVQLVESGGGLVQAGCSLRLICAASALTFYHKAMGWYRPAPVKERELVAPISSSGDSTYSADSVKGRFTISHDNGKNTVYLQMNSLKPEYTAVYYCAADLGYYNARWYEYWGQGTQVTVSS; high polyreactivity
